# Test system: johnsongrass (Sorghum halepense)
# assay-notes: Test C pre-/postemergence: johnsongrass
# Type: in vivo
# measurement-setup: Preemergence, 31 g ai/ha; scale of 0 to 100, 0 is no effect, 100 is complete control
# note: boundary value 60 maps to no; Plant response rating, Johnsongrass below it maps to yes

CCc1nn(-c2ccc(C(F)(F)F)cc2)nc1Cc1ccnc(C(F)(F)F)c1 [Compound 155]; no
Cc1nn(-c2ccc(F)cc2F)nc1Oc1ccnc(C(F)(F)F)c1 [Compound 146]; yes
FCc1nn(-c2ccc(F)cc2)nc1Oc1ccnc(C(F)(F)F)c1 [Compound 160]; no
Cc1nn(-c2ccc(C(F)(F)F)cn2)nc1Cc1cccc(C(F)(F)F)c1 [Compound 106]; yes
COc1nn(-c2ccc(C(F)(F)F)cc2)nc1Cc1ccnc(C(F)(F)F)c1 [Compound 15]; yes

Switching to the query record.
Query: Please indicate whether the reported Plant response rating, Johnsongrass of CCOCc1nn(-c2ccc(F)cc2)nc1Oc1ccnc(C(F)(F)F)c1 [Compound 163] is strictly below 60.
Reply: yes

---

Each item that follows carries a reported Plant response rating, Wheat.
# Test system: wheat (Triticum aestivum)
# assay-notes: Test A pre-/postemergence: wheat
# Assay type: in vivo
# measurement-setup: Postemergence, 125 g ai/ha; 0 to 100 scale, 0 is no effect, 100 is complete control
# answer = number (no unit)

Sample answers from the record:
COc1nn(-c2ccc(C(F)(F)F)cc2)nc1Cc1ccnc(C(F)F)c1; 50
CCCc1nn(-c2ccc(F)c(F)c2)nc1Oc1ccnc(C(F)(F)F)c1; 40
CCOc1nn(-c2ccc(F)cc2F)nc1Cc1ccnc(C(F)(F)F)c1; 70
CCCc1nn(-c2ccc(F)cc2F)nc1Oc1ccnc(C(F)(F)F)c1; 30

Query: Field request: Plant response rating, Wheat | item: Cc1cc(Oc2nn(-c3ccc(F)cc3)nc2C)ccn1
Reply: 0

Query: For the molecule shown here, CCc1nn(-c2ccc(F)c(F)c2)nc1Oc1ccnc(C(F)(F)F)c1 , give the reported Plant response rating, Wheat.
Reply: 30

Query: Entry Cc1nn(-c2ccc(C(F)(F)F)c(F)c2)nc1Oc1ccnc(C(F)(F)F)c1 : reported Plant response rating, Wheat = ?
Reply: 20

Query: Quick one: Plant response rating, Wheat of CC(C)(C)c1nn(-c2ccc(F)cc2)nc1Cc1ccnc(C(F)(F)F)c1 ?
Reply: 0

Query: Which Plant response rating, Wheat is reported for this molecule? CCCOc1nn(-c2ccc(C(F)(F)F)cc2)nc1Cc1ccnc(C(F)(F)F)c1
Reply: 70

Query: So what's the measured Plant response rating, Wheat for this one? CC(C)Oc1nn(-c2ccc(C(F)(F)F)cc2)nc1Cc1ccnc(C(F)(F)F)c1
Reply: 0

Query: Can you share its Plant response rating, Wheat? I mean this molecule: CCc1nn(-c2ccc(C(F)(F)F)cc2)nc1Oc1ccnc(C(F)(F)F)c1
Reply: 30

Query: Please give the measured Plant response rating, Wheat for this molecule: CC(=O)Oc1nn(-c2ccc(C(F)(F)F)cc2)nc1Cc1ccnc(C(F)(F)F)c1
Reply: 0

Query: I'd like to know its Plant response rating, Wheat. The molecule in question is CCc1nn(-c2ccc(F)cc2)nc1Cc1ccnc(C(F)(F)F)c1
Reply: 20

Query: Plant response rating, Wheat lookup needed for CCCc1nn(-c2ccc(C(F)(F)F)cc2)nc1Oc1ccnc(C(F)(F)F)c1 , thanks.
Reply: 40

---

# Test system: ryegrass, Italian (Italian ryegrass, Lolium multiflorum)
# assay-notes: Test C pre-/postemergence: ryegrass, Italian
# Format: in vivo
# measurement-setup: Postemergence, 125 g ai/ha; scale 0 to 100, 0 no effect, 100 complete control
Field 'label' (enum: yes / no). Set to yes when Plant response rating, Ryegrass, Italian is strictly under 40; else no.

Below are worked cases with known answers.
FCc1nn(-c2ccc(F)cc2)nc1Oc1ccnc(C(F)(F)F)c1 [Compound 160]; no
CCc1nn(-c2ccc(F)cc2)nc1Cc1ccnc(C(F)(F)F)c1 [Compound 154]; yes
Fc1ccc(-n2nc(Cc3ccnc(C(F)(F)F)c3)c(OC(F)F)n2)cc1 [Compound 25]; yes
CCCc1nn(-c2ccc(F)c(F)c2)nc1Oc1ccnc(C(F)(F)F)c1 [Compound 172]; yes
Cc1nn(-c2ccnc(Cl)c2)nc1Cc1ccnc(C(F)(F)F)c1 [Compound 141]; no
CCc1nn(-c2ccc(F)c(F)c2)nc1Oc1ccnc(C(F)(F)F)c1 [Compound 171]; yes

Query: API: query returns whether the molecule falls strictly under 40 in Plant response rating, Ryegrass, Italian. Query: Cc1nn(-c2ccc(F)c(C(F)(F)F)c2)nc1Cc1ccnc(C(F)(F)F)c1 [Compound 156]
Reply: yes

---

# Test system: barnyardgrass (Echinochloa crus-galli)
# assay-notes: Test A pre-/postemergence: barnyardgrass
# Format: in vivo
# measurement-setup: Preemergence, 500 g ai/ha; 0 to 100 scale (0 no effect, 100 complete control)
# Plant response rating, Barnyardgrass per record follows
// return just the number, without any unit appended

The cases that follow already have their Plant response rating, Barnyardgrass on record.
CCc1nn(-c2ccc(F)c(C(F)(F)F)c2)nc1Oc1ccnc(C(F)(F)F)c1; 80
CCc1nn(-c2ccc(C(F)(F)F)cc2)nc1Oc1ccnc(C(F)(F)F)c1; 90
CCc1nn(-c2ccc(C(F)(F)F)c(F)c2)nc1Oc1ccnc(C(F)(F)F)c1; 100
CCc1nn(-c2ccc(F)cc2)nc1Cc1ccnc(C(F)(F)F)c1; 100
CCOc1nn(-c2ccc(Cl)cc2)nc1Cc1ccnc(C(F)(F)F)c1; 100

Query: What measured Plant response rating, Barnyardgrass goes with Cc1nn(-c2ccc(F)cc2)nc1Oc1cccc(C(F)(F)F)n1 ?
Reply: 10

---

# Test system: ryegrass, Italian (Italian ryegrass, Lolium multiflorum)
# assay-notes: Test C pre-/postemergence: ryegrass, Italian
# Type: in vivo
# measurement-setup: Preemergence, 250 g ai/ha; scale 0 to 100, 0 no effect, 100 complete control
Please respond with satisfied when measured Plant response rating, Ryegrass, Italian is strictly beneath 90, and with not satisfied in all other cases.

CCCc1nn(-c2ccc(F)c(F)c2)nc1Oc1ccnc(C(F)(F)F)c1; not satisfied
CCCc1nn(-c2ccc(C(F)(F)F)cc2)nc1Oc1ccnc(C(F)(F)F)c1; not satisfied
Cc1nn(-c2ccc(C(F)(F)F)cc2)nc1Oc1ccnc(C(F)(F)F)c1; not satisfied
FC(F)Oc1nn(-c2ccc(C(F)(F)F)cc2)nc1Cc1ccnc(C(F)(F)F)c1; satisfied

Below: the item to evaluate.
Query: I'd appreciate it if you could check whether FC(F)(F)COc1nn(-c2ccc(C(F)(F)F)cc2)nc1Cc1ccnc(C(F)(F)F)c1 has Plant response rating, Ryegrass, Italian smaller than 90.
Reply: satisfied

---

# Tested on: ragweed (common ragweed, Ambrosia elation)
# assay-notes: Test C pre-/postemergence: ragweed
# Type: in vivo
# measurement-setup: Preemergence, 125 g ai/ha; scale 0 to 100, 0 no effect, 100 complete control
Please respond with TRUE when measured Plant response rating, Ragweed is strictly beneath 50, and with FALSE in all other cases.

Consider the following illustrative entries.
COc1nn(-c2cccc(F)c2)nc1Cc1ccnc(C(F)(F)F)c1; TRUE
CCOCc1nn(-c2ccc(F)cc2)nc1Oc1ccnc(C(F)(F)F)c1; TRUE
CCCc1nn(-c2ccc(F)c(F)c2)nc1Oc1ccnc(C(F)(F)F)c1; FALSE
Cc1nn(-c2ccc(C(F)(F)F)cn2)nc1Oc1ccnc(C(F)(F)F)c1; TRUE
Cc1nn(-c2ccc(C(F)(F)F)cn2)nc1Cc1cccc(C(F)(F)F)c1; TRUE

Query: Decide: Plant response rating, Ragweed of CCc1nn(-c2ccc(F)c(F)c2)nc1Oc1ccnc(C(F)(F)F)c1 strictly below 50?
Reply: TRUE

Query: Determine whether this compound shows Plant response rating, Ragweed lower than 50 (ties excluded): CCCc1nn(-c2ccc(C(F)(F)F)cc2)nc1Oc1ccnc(C(F)(F)F)c1
Reply: FALSE

Query: Record CCOc1nn(-c2ccc(F)cc2)nc1Cc1ccnc(C(F)(F)F)c1 : is its Plant response rating, Ragweed strictly below 50?
Reply: FALSE

---

# System: windgrass (Apera spica-venti)
# assay-notes: Test C postemergence: windgrass
# Format: in vivo
# measurement-setup: 125 g ai/ha, scale 0 to 100, 0 no effect, 100 complete control
observation-type: Plant response rating, Windgrass
Answer using only a numeral; do not append any unit.

FC(F)Oc1nn(-c2ccc(C(F)(F)F)cc2)nc1Cc1ccnc(C(F)(F)F)c1 [Compound 26]; 80
Cc1nn(-c2ccc(C(F)(F)F)cc2)nc1Oc1ccnc(C(F)(F)F)c1 [Compound 120]; 90
Cc1nn(-c2ccc(C(F)(F)F)cn2)nc1Oc1ccnc(C(F)(F)F)c1 [Compound 23]; 15

Turning to the following compound.
Query: Suppose we examine the compound CCOc1nn(-c2ccc(F)cc2)nc1Cc1ccnc(C(F)(F)F)c1 [Compound 196] ; what Plant response rating, Windgrass value has been reported?
Reply: 95
